assay: Volume of distribution at steady state in mouse at 2.5 mg/kg, iv; format: ADME, organism-based; set-up: dose 2.5 mg/kg, route intravenous; conditions: in vivo, read-out: Vdss
measurement-name: Vd

QUERY: Using known records, supply Vd for CS(=O)(=O)N1CCN(c2cnc3cc(C(F)(F)F)cc(NCc4cccc([N+](=O)[O-])c4)c3c2)CC1
RESULT: 1.72 L/kg

----------
test system: BaF3; experiment: Antiproliferative activity against mouse BAF3 cells expressing TPR-Met after 72 hrs in absence of IL-3; type: functional, cell-based; conditions: BaF3, 72 h
measurement-name: IC50 (µM)
Response body: numeric value in µM, unit text excluded.

structure-smiles-string	IC50 [µM]
O=[N+]([O-])c1cccc(CNc2cc(C(F)(F)F)cc3ncc(N4CCOCC4)cc23)c1	4.2
O=[N+]([O-])c1cccc(CNc2cc(C(F)(F)F)cc3ncc(N4CCN(S(=O)(=O)C5CC5)CC4)cc23)c1	0.5

Now for another entry.
QUERY: Please report the measured IC50 for CS(=O)(=O)N1CCN(c2cnc3cc(C(F)(F)F)cc(NCc4cccc([N+](=O)[O-])c4)c3c2)CC1
RESULT: 8.8
